Reference source for all entries: paper PMC12203862

# System: E. faecalis J2
# Assay Name: microbe, parasite or virus in culture
# Assay type: cell-based
# Assay Context: Enterococcus faecalis; Table 1; E. faecalis J2; ermB, optrA; broth microdilution; read-out: MIC
Reported MIC values for the following compounds.
Quick note: give the figure in µg/mL, leave out the unit.

Below: 3 compounds and their reported MIC.
{"Structure Notation": "O=C(O)c1cn(C2CC2)c2cc(N3CCNCC3)c(F)cc2c1=O", "MIC (µg/mL)": 8}
{"Structure Notation": "CC(=O)NC[C@H]1CN(c2ccc(N3CCOCC3)c(F)c2)C(=O)O1", "MIC (µg/mL)": 8}
{"Structure Notation": "CC1(C)S[C@@H]2[C@H](NC(=O)[C@H](N)c3ccccc3)C(=O)N2[C@H]1C(=O)O", "MIC (µg/mL)": 16}

# next compound below
Qu. Lab note: E. faecalis J2 assay, enter MIC for C[C@H]1c2cccc(O)c2C(=O)C2=C(O)[C@]3(O)C(=O)C(C(N)=O)=C(O)[C@@H](N(C)C)[C@@H]3[C@@H](O)[C@@H]21 here
Ans. 16

----------
# Test system: A. baumannii AB11
# Assay Name: microbe, parasite or virus in culture
# Assay type: cell-based
# Assay Context: Acinetobacter baumannii; Table 1; A. baumannii AB11; broth microdilution; read-out: MIC
Quantity Name: MIC

{"Compound": "CCC[C@@H]1C[C@@H](C(=O)N[C@@H]([C@H]2O[C@H](SC)[C@H](O)[C@@H](O)[C@H]2O)[C@H](C)Cl)N(C)C1", "MIC": "0.5 µg/mL"}
{"Compound": "C[C@H]1[C@H](NC(=O)/C(=N\\OC(C)(C)C(=O)O)c2csc(N)n2)C(=O)N1S(=O)(=O)O", "MIC": "> 64 µg/mL"}
{"Compound": "CNC(C)C1CCC(N)C(OC2C(N)CC(N)C(OC3OCC(C)(O)C(NC)C3O)C2O)O1 (stereo not shown)", "MIC": "< 0.06 µg/mL"}
{"Compound": "C[C@H]1c2cccc(O)c2C(=O)C2=C(O)[C@]3(O)C(=O)C(C(N)=O)=C(O)[C@@H](N(C)C)[C@@H]3[C@@H](O)[C@@H]21", "MIC": "< 0.06 µg/mL"}
{"Compound": "CO[C@@]1(NC(=O)Cc2cccs2)C(=O)N2C(C(=O)O)=C(COC(N)=O)CS[C@@H]21", "MIC": "16 µg/mL"}
{"Compound": "CC1(C)S[C@@H]2[C@H](NC(=O)[C@H](N)c3ccccc3)C(=O)N2[C@H]1C(=O)O", "MIC": "< 0.06 µg/mL"}

Let us move to another entry and its MIC.
Qu. Give the observed MIC of C[C@@H](O)[C@H]1C(=O)N2C(C(=O)O)=C(S[C@@H]3CN[C@H](C(=O)N(C)C)C3)[C@H](C)[C@H]12 for A. baumannii AB11.
Ans. < 0.06 µg/mL

----------
# Test system: E. coli ATCC 25922
# Assay Name: microbe, parasite or virus in culture
# Type: cell-based
# Assay Context: Escherichia coli, ATCC25922; Table 1; E. coli ATCC 25922; broth microdilution; read-out: MIC
Reported MIC values for a set of compounds
// units = µg/mL; emit number, no label

# count of solved cases: 2
{"Compound": "CC1(C)S[C@@H]2[C@H](NC(=O)[C@H](N)c3ccccc3)C(=O)N2[C@H]1C(=O)O [AMP, Ampicillin]", "Number": 2}
{"Compound": "C[C@H]1c2cccc(O)c2C(=O)C2=C(O)[C@]3(O)C(=O)C(C(N)=O)=C(O)[C@@H](N(C)C)[C@@H]3[C@@H](O)[C@@H]21 [DOX, doxycycline]", "Number": 1}

Qu. Read the entry CO[C@@]1(NC(=O)Cc2cccs2)C(=O)N2C(C(=O)O)=C(COC(N)=O)CS[C@@H]21 [FOX, Cefoxitin] and write its reported MIC.
Ans. 0.25

Qu. Give a short answer stating reported MIC for C[C@@H](O)[C@H]1C(=O)N2C(C(=O)O)=C(S[C@@H]3CN[C@H](C(=O)N(C)C)C3)[C@H](C)[C@H]12 [MEM, Meropenem] .
Ans. 0.25

Qu. Specify measured MIC for C[C@H]1[C@H](NC(=O)/C(=N\OC(C)(C)C(=O)O)c2csc(N)n2)C(=O)N1S(=O)(=O)O [ATM, Aztreonam] .
Ans. 0.25

Qu. Determine its reported MIC: CNC(C)C1CCC(N)C(OC2C(N)CC(N)C(OC3OCC(C)(O)C(NC)C3O)C2O)O1 (stereo not shown) [GEN, gentamicin]
Ans. 4

----------
MIC for assorted compounds
# System: S. enteritis S1
# Assay Name: organism not typed
# Assay type: cell-based
# Assay Context: Table 1; S. enteritis S1; broth microdilution; read-out: MIC
Just the number please, in µg/mL, no unit attached.

{"Compound": "CC1(C)S[C@@H]2[C@H](NC(=O)[C@H](N)c3ccccc3)C(=O)N2[C@H]1C(=O)O", "Measurement Unit": "µg/mL", "Number": 32}
{"Compound": "C[C@@H](O)[C@H]1C(=O)N2C(C(=O)O)=C(S[C@@H]3CN[C@H](C(=O)N(C)C)C3)[C@H](C)[C@H]12", "Measurement Unit": "µg/mL", "Number": 0.25}

Qu. Answer with reported MIC of C[C@H]1[C@H](NC(=O)/C(=N\OC(C)(C)C(=O)O)c2csc(N)n2)C(=O)N1S(=O)(=O)O
Ans. 2

Qu. Fill in MIC for record CNC(C)C1CCC(N)C(OC2C(N)CC(N)C(OC3OCC(C)(O)C(NC)C3O)C2O)O1 (centres unmarked)
Ans. 0.25

Qu. Please list MIC recorded for the compound C[C@H]1COc2c(N3CCN(C)CC3)c(F)cc3c(=O)c(C(=O)O)cn1c23
Ans. 0.5

Qu. Tell me MIC reported for CO[C@@]1(NC(=O)Cc2cccs2)C(=O)N2C(C(=O)O)=C(COC(N)=O)CS[C@@H]21
Ans. 32

----------
# Test system: S. aureus M147-2
# Assay Name: microbe, parasite or virus in culture
# Format: cell-based
# Assay Context: Staphylococcus aureus, M1472; Table 1; S. aureus M147-2; ermB, tetL, cfr; broth microdilution; read-out: MIC
Quantity Name: MIC

Examples with answers:
{"Compound": "C[C@H]1c2cccc(O)c2C(=O)C2=C(O)[C@]3(O)C(=O)C(C(N)=O)=C(O)[C@@H](N(C)C)[C@@H]3[C@@H](O)[C@@H]21", "Quantity Name": "MIC", "Result": "16 µg/mL"}
{"Compound": "CC1(C)S[C@@H]2[C@H](NC(=O)[C@H](N)c3ccccc3)C(=O)N2[C@H]1C(=O)O", "Quantity Name": "MIC", "Result": "16 µg/mL"}
{"Compound": "CC[C@H]1OC(=O)[C@H](C)[C@@H](O[C@H]2C[C@@](C)(OC)[C@@H](O)[C@H](C)O2)[C@H](C)[C@@H](O[C@@H]2O[C@H](C)C[C@H](N(C)C)[C@H]2O)[C@](C)(O)C[C@@H](C)C(=O)[C@H](C)[C@@H](O)[C@]1(C)O", "Quantity Name": "MIC", "Result": "> 64 µg/mL"}
{"Compound": "CCC[C@@H]1C[C@@H](C(=O)N[C@@H]([C@H]2O[C@H](SC)[C@H](O)[C@@H](O)[C@H]2O)[C@H](C)Cl)N(C)C1", "Quantity Name": "MIC", "Result": "> 64 µg/mL"}
{"Compound": "CNC(C)C1CCC(N)C(OC2C(N)CC(N)C(OC3OCC(C)(O)C(NC)C3O)C2O)O1 (centres unmarked)", "Quantity Name": "MIC", "Result": "> 64 µg/mL"}

Qu. Specify MIC for CC(=O)NC[C@H]1CN(c2ccc(N3CCOCC3)c(F)c2)C(=O)O1 , system S. aureus M147-2.
Ans. 8 µg/mL

Qu. Given CO[C@@]1(NC(=O)Cc2cccs2)C(=O)N2C(C(=O)O)=C(COC(N)=O)CS[C@@H]21 , report its MIC on S. aureus M147-2.
Ans. 4 µg/mL

Qu. Return reported MIC for target or system S. aureus M147-2, item O=C(O)c1cn(C2CC2)c2cc(N3CCNCC3)c(F)cc2c1=O .
Ans. 32 µg/mL

----------
# System: S. suis P1/7
# Assay Name: microbe, parasite or virus in culture
# Assay Context: Streptococcus suis, P1/7
Quantity Name: MIC (µg/mL)
Write the value in µg/mL as a bare number.

Before answering, review these 6 worked examples.
{"Compound": "CNC(C)C1CCC(N)C(OC2C(N)CC(N)C(OC3OCC(C)(O)C(NC)C3O)C2O)O1 (centres unmarked)", "MIC [µg/mL]": 4}
{"Compound": "CCC[C@@H]1C[C@@H](C(=O)N[C@@H]([C@H]2O[C@H](SC)[C@H](O)[C@@H](O)[C@H]2O)[C@H](C)Cl)N(C)C1", "MIC [µg/mL]": 0.125}
{"Compound": "CC(=O)NC[C@H]1CN(c2ccc(N3CCOCC3)c(F)c2)C(=O)O1", "MIC [µg/mL]": 0.125}
{"Compound": "CC1(C)S[C@@H]2[C@H](NC(=O)[C@H](N)c3ccccc3)C(=O)N2[C@H]1C(=O)O", "MIC [µg/mL]": 0.5}
{"Compound": "C[C@H]1c2cccc(O)c2C(=O)C2=C(O)[C@]3(O)C(=O)C(C(N)=O)=C(O)[C@@H](N(C)C)[C@@H]3[C@@H](O)[C@@H]21", "MIC [µg/mL]": 0.125}
{"Compound": "CC[C@H]1OC(=O)[C@H](C)[C@@H](O[C@H]2C[C@@](C)(OC)[C@@H](O)[C@H](C)O2)[C@H](C)[C@@H](O[C@@H]2O[C@H](C)C[C@H](N(C)C)[C@H]2O)[C@](C)(O)C[C@@H](C)C(=O)[C@H](C)[C@@H](O)[C@]1(C)O", "MIC [µg/mL]": 0.125}

Qu. Param request: MIC | system S. suis P1/7 | item CO[C@@]1(NC(=O)Cc2cccs2)C(=O)N2C(C(=O)O)=C(COC(N)=O)CS[C@@H]21
Ans. 1
